System: CP262
Assay Details: qHTS profiling for inhibitors of Plasmodium falciparum proliferation (AID 504749); also: nearly all actives have a fitted effect of over 60% in size
Condition: P. falciparum in erythrocytes, SYBR Green DNA, 72 h; series mostly up to 28.7 µM
Results filed as inconclusive are left out. Activity calls are given as the source filed them. Calls follow the shape of the dose curve; as a rule, active = well fitted inhibition curve with a large enough effect; inconclusive = small, poorly fitted or top-dose-only effect; inactive = flat fitted curve, though single readings scatter.
Could you please pick one outcome from this set? active, inactive

Test call, this compound: "C[C@H](NC(C)(C)C)C(=O)c1cccc(Cl)c1"
inactive

Test call, this compound: CCCC[N+]1(C)C2CC(OC(=O)C(CO)c3ccccc3)CC1C1OC12 (centres undefined)
inactive

Test call, this compound: C[C@]12CC[C@H](OS(=O)(=O)O)CC1=CCC1C2CC[C@]2(C)C(=O)CC[C@@H]12 (some centres undefined)
inactive

Test call, this compound: "CC[C@@H]1[C@@H]2C[C@H]3[C@H]4N(C)c5ccccc5[C@@]45C[C@@H]([C@@H]2[C@@H]5O)N3[C@H]1O"
inactive

Test call, this compound: "C[C@@]12CC[C@H]3[C@@H](CC[C@@H]4C[C@H]5S[C@H]5C[C@]43C)[C@H]1CC[C@H]2O"
inactive

Test call, this compound: CC(=O)OC1C[C@H](O[C@@H]2C(O)C[C@H](O[C@@H]3C(O)C[C@@H](OC4CC[C@]5(C)C(CCC6C5CC(O)[C@@]5(C)C(C7=CC(=O)OC7)CC[C@@]65O)C4)OC3C)OC2C)O[C@H](C)[C@H]1O[C@H]1OC(CO)C(O)C(O)C1O (some centres undefined)
inactive

Test call, this compound: "CN(C)C(=O)Oc1cc(OC(=O)N(C)C)cc([C@@H](O)CNC(C)(C)C)c1"
inactive

Test call, this compound: "C[C@H](N)[C@@H](O)c1ccccc1"
inactive

Test call, this compound: "CNC[C@H](O)c1ccc(O)cc1"
inactive

Test call, this compound: "CC(=O)OCC(=O)[C@@H]1CC[C@H]2[C@H]3CC[C@H]4C[C@@H](O)CC[C@]4(C)[C@@H]3C(=O)C[C@@]12C"
inactive

Test call, this compound: "Clc1ccc([C@@H](OCCN2CCCCC2)c2ccccc2)cc1"
inactive

Test call, this compound: "CC(C)c1c(CN(C)[C@@H](C)Cc2ccccc2)n(C)n(-c2ccccc2)c1=O"
inactive

Test call, this compound: CNC(C)[C@@H](O)c1ccc(O)cc1 (some centres undefined)
inactive

Test call, this compound: "C#CCN(C)[C@@H](C)Cc1ccccc1"
inactive

Test call, this compound: "CCNC[C@H](O)c1cccc(O)c1"
inactive

Test call, this compound: C[N+]1([O-])[C@@H]2CC[C@H]1CC(OC(=O)[C@@H](CO)c1ccccc1)C2 (some centres undefined)
inactive

Test call, this compound: "CC(C)N(CC[C@@](C(N)=O)(c1ccccc1)c1ccccn1)C(C)C"
inactive

Test call, this compound: "CC1=C2[C@@H]3OC(=O)[C@@H](C)[C@@H]3CC[C@]2(C)C=CC1=O"
inactive

Test call, this compound: "N[C@H]1C[C@H]1c1ccccc1"
inactive

Test call, this compound: "COc1ccc2c(c1OC)CN1CCc3cc4c(cc3[C@H]1C2)OCO4"
active

Test call, this compound: C[N+]1([O-])[C@@H]2CC(OC(=O)[C@@H](CO)c3ccccc3)C[C@@H]1[C@H]1O[C@H]12 (some centres undefined)
inactive

Test call, this compound: "COc1cc(N)c(Cl)cc1C(=O)N[C@@H]1CN2CCC1CC2"
inactive

Test call, this compound: "NCC[C@H](O)C(=O)N[C@H]1C[C@@H](N)[C@@H](O[C@H]2O[C@@H](CN)[C@@H](O)[C@@H](O)[C@@H]2N)[C@@H](O[C@H]2O[C@@H](CO)[C@@H](O)[C@@H]2O)[C@@H]1O"
inactive

Test call, this compound: CN[C@@H](C)[C@H]1CC[C@@H](N)[C@@H](O[C@@H]2[C@@H](O)[C@@H](O[C@H]3OC[C@@](C)(O)[C@@H](NC)[C@@H]3O)[C@H](N)C[C@@H]2N)O1 (tested in a mixture with another compound)
inactive

---

Assay Details: Primary qHTS for Huh7 cytotoxicity: counterscreen for inhibitors of MERS-S pseudotyped particle cell entry (AID 1479147)
Condition: cell viability read-out; series mostly up to 57.1 µM
Inconclusive results are not listed. Calls of active or inactive are those of the source. Calls follow the shape of the full dose curve.
Measured Property: outcome

What measured outcome goes with "CC(C)CN(C[C@@H](O)[C@H](Cc1ccccc1)NC(=O)O[C@H]1CCOC1)S(=O)(=O)c1ccc(N)cc1" ?
inactive

What measured outcome goes with "CC[C@H]1[C@@H](O)[C@@H]2[C@H](CC[C@]3(C)[C@@H]([C@H](C)CCC(=O)O)CC[C@@H]23)[C@@]2(C)CC[C@@H](O)C[C@@H]12" ?
inactive

What measured outcome goes with "CC(=O)O[C@H]1C[C@@H]2CC[C@@H]3[C@H](CC[C@@]4(C)[C@H]3C[C@H](N3CC[N+](C)(C)CC3)[C@@H]4OC(C)=O)[C@@]2(C)C[C@@H]1N1CC[N+](C)(C)CC1" ?
inactive

---

Assay Details: Primary qHTS to identify inhibitors of SARS-CoV-2 cell entry (AID 1645846); also: nearly all actives have a fitted effect of over 45% in size
Condition: SARS-CoV-2 pseudovirus cell entry assay, luminescence; at 57.1 µM (top of the series) unless noted
Description: Assay Provider: Wei Zheng, Ph.D. National Center for Advancing Translational Sciences, National Institute of Health, Rockville, MD. SARS-CoV-2 spike protein, within the viral envelope, mediates viral attachment and infection of host cells. The SARS-CoV-2 spike protein specifically binds to the host receptor ACE2 (Angiotensin-converting enzyme 2). […] 11. […] Read luminescence signal (Viewlux plate reader, PerkinElmer). […]
Inconclusive results are not listed.
Provide the reported activity change, negative = inhibition of each item.

What measured activity change, negative = inhibition goes with "C[C@@H](O)[C@@H]1NC(=O)[C@H](CCCCN)NC(=O)[C@@H](Cc2c[nH]c3ccccc23)NC(=O)[C@H](Cc2ccccc2)NC(=O)[C@@H](NC(=O)[C@H](N)Cc2ccccc2)CSSC[C@@H](C(=O)N[C@H](CO)[C@@H](C)O)NC1=O" ?
-12.9% [at 27.1 µM]

What measured activity change, negative = inhibition goes with "C[C@@H]1O[C@@H](O[C@@H]2/C=C/C=C/C=C\C=C\C[C@H](C)OC(=O)/C=C/[C@H]3O[C@@H]3C[C@H](O)C[C@]3(O)C[C@@H](O)[C@@H](C(=O)O)[C@H](C2)O3)[C@H](O)[C@H](N)[C@@H]1O" ?
-12.9% [at 11.3 µM]

What measured activity change, negative = inhibition goes with "O=C(O)c1ccccc1-c1ccc(/C=c2\sc3nc4cc(Br)cnc4n3c2=O)o1" ?
-1.33% [at 27.1 µM]

What measured activity change, negative = inhibition goes with "COc1ccc([C@@H](O)[C@@H](C)Oc2ccc([C@H]3O[C@H](c4ccc(O[C@H](C)[C@H](O)c5ccc(OC)c(OC)c5)c(OC)c4)[C@H](C)[C@H]3C)cc2OC)cc1OC" ?
-95.6%

What measured activity change, negative = inhibition goes with "C[C@H](CCC(=O)O)[C@H]1CC[C@H]2[C@@H]3[C@H](O)C[C@@H]4C[C@H](O)CC[C@]4(C)[C@H]3CC[C@]12C" ?
-12.9%

What measured activity change, negative = inhibition goes with "NC(=S)NS(=O)(=O)c1ccc(N)cc1" ?
-18.4%

What measured activity change, negative = inhibition goes with Cn1cc(OCC(O)CNC(C)(C)C)c2ccccc2c1=O (stereo not drawn) ?
-17.6%

What measured activity change, negative = inhibition goes with "C[C@]12C=CC(=O)C=C1CC[C@@H]1[C@@H]2[C@@H](O)C[C@@]2(C)[C@H]1CC[C@]2(O)C(=O)COP(=O)(O)O" ?
-19.2% [at 11.3 µM]

---

Assay Details: Primary qHTS for inhibitors of MERS-S pseudo-typed particle cell entry (AID 1479149); also: nearly all actives have a fitted effect of over 60% in size
Condition: MERS-S pseudotyped particle entry, luciferase; series mostly up to 57.1 µM
Records with an inconclusive call do not appear. The source made the active and inactive calls. The call rests on the fitted dose curve. Numbered stars: 1 amine (or outer) side, 2 acyl side, 3 side chain; on linkers, the order of the positions; unused ones are H or OH. Bridge positions count the residues as written; N and C are the ends. Square brackets hold non-standard residues; d marks the D form. Peptide text beside a SMILES is read from it. * marks the point of attachment. ξ: configuration not given here. pTerphenylCO(4''-OnC5H11) = CCCCCOc1ccc(-c2ccc(-c3ccc(C(=O)*)cc3)cc2)cc1; ξOrn(4,5-diOH) = O=C(C(CC(O)C(O)N[*:3])N[*:1])[*:2]; ξhTyr(βξ-OH,γξ-OH) = NC(C(=O)O)C(O)C(O)c1ccc(O)cc1; ξPro(3ξ-OH,4ξ-Me) = CC1CNC(C(=O)O)C1O; Hyp = O=C(O)[CH]1C[CH](O)CN1
Could you please pick one outcome from this set? True = active, False = inactive

Test call, this molecule: "O=S(=O)(O)c1ccc2c(N=Nc3ccc(S(=O)(=O)O)c4ccccc34)c(O)c(S(=O)(=O)O)cc2c1"
False

Test call, this molecule: "CCCC(=O)O[C@]1(C(=O)COC(=O)CC)[C@@H](C)C[C@H]2[C@@H]3CCC4=CC(=O)C=C[C@]4(C)[C@@]3(F)[C@@H](O)C[C@@]21C"
False

Test call, this molecule: "CCN(CC)Cc1cc(Nc2ccnc3cc(Cl)ccc23)ccc1O"
True

Test call, this molecule: CC(=O)Oc1c(C)cc(OCC(O)CNC(C)C)c(C)c1C (stereo not given)
False

Test call, this molecule: CN(C)C(=O)NC1CCC(CCN2CCN(c3cccc(Cl)c3Cl)CC2)CC1 (stereo not given)
False

Test call, this molecule: CCCCCOc1ccc(-c2ccc(-c3ccc(C(=O)NC4CC(O)C(O)NC(=O)C5C(O)C(C)CN5C(=O)C(C(C)O)NC(=O)C(C(O)C(O)c5ccc(O)cc5)NC(=O)C5CC(O)CN5C(=O)C(C(C)O)NC4=O)cc3)cc2)cc1 (stereo not drawn) ({pTerphenylCO(4''-OnC5H11)}-[ξOrn(4,5-diOH)]T[Hyp][ξhTyr(βξ-OH,γξ-OH)]T[ξPro(3ξ-OH,4ξ-Me)]; lactam 1-C; configuration not given here)
True

Test call, this molecule: "CC(=O)OCC(=O)[C@@]12OC3(CCCC3)O[C@@H]1C[C@H]1[C@@H]3CCC4=CC(=O)C=C[C@]4(C)[C@@]3(F)[C@@H](O)C[C@@]12C"
False

Test call, this molecule: "O=C(O)c1ccc(NC(=O)[C@H](Cc2ccc(O)cc2)NC(=O)c2ccccc2)cc1"
False

Test call, this molecule: "C[C@]12CCC3=C4CCC(=O)C=C4CC[C@H]3[C@@H]1CC[C@@]2(O)CC#N"
False

Test call, this molecule: "CCCOc1ccc2nc(NC(=O)OC)sc2c1"
False

Test call, this molecule: "CCOC(=O)[C@@H](N)CS"
False

Test call, this molecule: "CC(C)(C)CC(=O)OCC(=O)[C@@]12OC(C)(C)O[C@@H]1C[C@H]1[C@@H]3CCC4=CC(=O)C=C[C@]4(C)[C@@]3(F)[C@@H](O)C[C@@]12C"
False

Test call, this molecule: "O=P(O)(O)OC(CO)CO"
False

Test call, this molecule: "C[C@@H](O)[C@H]1C(=O)N2C(C(=O)O)=C(S[C@@H]3CN[C@H](C(=O)Nc4cccc(C(=O)O)c4)C3)[C@H](C)[C@H]12"
False

Test call, this molecule: "CCCCCCCCCCCC[n+]1ccc2ccccc2c1"
True

Test call, this molecule: "O=C1C(c2[nH]c3ccc(S(=O)(=O)O)cc3c2O)=Nc2ccc(S(=O)(=O)O)cc21"
False

Test call, this molecule: "Cc1ccc(S(=O)(=O)O)cc1"
False

Test call, this molecule: "C[C@@](Cc1ccc(O)c(O)c1)(NN)C(=O)O"
False

Test call, this molecule: "C[C@H]1O[C@]2(CS1)CN1CCC2CC1"
False

Test call, this molecule: "Cc1cc2nc3c(=O)[nH]c(=O)nc-3n(C[C@H](O)[C@H](O)[C@H](O)COP(=O)(O)OP(=O)(O)OC[C@H]3O[C@@H](n4cnc5c(N)ncnc54)[C@H](O)[C@H]3O)c2cc1C"
False

Test call, this molecule: CS(=O)(=O)OCC(O)C(O)COS(C)(=O)=O (stereo not given)
False

Test call, this molecule: "Cc1ccccc1-c1cc(N2CCN(C)CC2)ncc1N(C)C(=O)C(C)(C)c1cc(C(F)(F)F)cc(C(F)(F)F)c1"
False

Test call, this molecule: "CCCCc1cc2c(=O)c(C(=O)OC)c[nH]c2cc1OCc1ccccc1"
False

Test call, this molecule: "CSCC[C@H](N)C(=O)O"
False

Test call, this molecule: CC(=O)c1cc2cccc(OCC(O)CNC(C)C)c2o1 (stereo not given)
False

Test call, this molecule: CC#CCC(C)[C@H](O)/C=C/[C@@H]1[C@H]2C/C(=C/CCCC(=O)O)C[C@H]2C[C@H]1O (stereo not given in full)
False

Test call, this molecule: COc1ccc2c(O[C@H]3CC4C(=O)N(C)CCCC/C=C\[C@@H]5C[C@@]5(C(=O)NS(=O)(=O)C5CC5)NC(=O)[C@@H]4C3)cc(-c3nc(C(C)C)cs3)nc2c1C (stereo not given in full)
False

Test call, this molecule: CN(C)C/C=C/C(=O)Nc1cc2c(Nc3ccc(F)c(Cl)c3)ncnc2cc1OC1CCOC1 (stereo not given)
True

Test call, this molecule: "COc1cc(CNC(=O)CCCC/C=C/C(C)C)ccc1O"
False

Test call, this molecule: "CCC(=O)O[C@H]1CC[C@H]2[C@@H]3CC[C@H]4CC(=O)[C@H](C)C[C@]4(C)[C@H]3CC[C@]12C"
False
